Please respond with reported GI50 for every item in the list.
- Test system: OVCAR-3
- assay explanation: Cytotoxicity against ovarian OVCAR-3 cancer cell cultures.
- Assay type: functional
- settings: Homo sapiens
State the answer as a number, implicitly in nM.

// GI50 value for C[C@H]1CCC/C=C/[C@@H]2C[C@H](O)C[C@H]2[C@H](O)[C@H]([S+]([O-])CCN(C)C)CC(=O)O1 (stereo not given in full) : 140

// GI50 value for C[C@H]1CCC/C=C/[C@@H]2C[C@H](O)C[C@H]2[C@H](O)[C@H](SCC(=O)O)CC(=O)O1 : 30000

// GI50 value for C[C@H]1CCC/C=C/[C@@H]2C[C@H](O)C[C@H]2[C@H](O)C(O)C(O)C(=O)O1 (stereo not given in full) : 2400

// GI50 value for C[C@H]1CCC/C=C/[C@@H]2C[C@H](O)C[C@H]2[C@H](O)[C@H](SCCN)CC(=O)O1 : 2200
